Below, each entry is listed with its recorded Growth Rate.
# Tested on: Fibroblast
# procedureSummary: Incucyte cell viability with human fibroblast; note: filed as whole numbers so only -1 and 0 and 1 occur
# Assay type: toxicity, cell-based
# conditions: 6 h, 10 µM, compound concentration 10 uM, replicate number 1, timepoint 6 hours
A bare number is all that is needed in reply.

CC(=O)c1c(NS(C)(=O)=O)c2cc(-c3ccc(Cl)cc3)c(-c3ccc(Cl)cc3Cl)nc2n(C)c1=O [MRL-CB1-NC] : 0
CO[C@H]1CC[C@H](CNc2ccc(S(=O)(=O)NC(=O)c3ccc(N4CCN(CC5=C(c6ccc(Cl)cc6)CC(C)(C)CC5)CC4)cc3Oc3cnc4[nH]ccc4c3)cc2[N+](=O)[O-])CC1 [A-1211212] : 0
CCN(CC)S(=O)(=O)Nc1cccc(-c2ccc3c(NC(=O)C4CC4)n[nH]c3c2)c1 : 0
CC(C)c1onc(-c2c(Cl)cccc2Cl)c1COc1ccc(/C=C/c2cccc(C(=O)O)c2)c(Cl)c1 : 1
C=CC(=O)N1CCC([C@@H]2CCNc3c(C(N)=O)c(-c4ccc(Oc5ccccc5)cc4)nn32)CC1 [ZANUBRUTINIB] : 0

**Q:** Give its Growth Rate value. Item: CCCS(=O)(=O)Nc1ccc(F)c(C(=O)c2c[nH]c3ncc(Cl)cc23)c1F [PLX-4720]
**A:** 0

**Q:** Give its Growth Rate value. Item: CCc1cccc(CC)c1NC(=O)c1nn(C)c2c1CCc1cnc(Nc3ccc(C(=O)NC4CCN(C)CC4)cc3OC(F)(F)F)nc1-2
**A:** 1

**Q:** Give its Growth Rate value. Item: Cc1ccc(C(=O)Nc2cccc(C(F)(F)F)c2)cc1Nc1nc(-c2cccnc2)nc2c1cnn2C
**A:** 0

**Q:** Give its Growth Rate value. Item: Cc1nc(-c2ccc(C(F)(F)F)cc2)sc1COc1ccc([C@H](CC(=O)O)c2ccon2)cc1
**A:** 0

**Q:** Give its Growth Rate value. Item: O=C(Nc1nc2cccc(-c3ccc(CN4CCS(=O)(=O)CC4)cc3)n2n1)C1CC1 [FILGOTINIB]
**A:** 1

**Q:** Give its Growth Rate value. Item: O=C(Nc1ccc(Cl)cc1)Nc1cccc(-c2cccc(N3CCCC3)n2)c1
**A:** 0

###

# Test system: U2OS
# procedureSummary: Multiplex assay against U2OS
# Type: toxicity, cell-based
# conditions: human, 12 h, 10 µM, compound concentration 10 uM, replicate 1
recordedEndpoint: Population Healthy Nuclei (%)
I only need the number, in %, no unit after it.

Please review the following examples before continuing.
CCOC(=O)c1c(C)[nH]c2ccc3c(c12)CN1CCc2cc(OC)ccc2C1O3 (stereo not drawn) : 68
CN1C2CCC1CC(OC(c1ccc(F)cc1)c1ccc(F)cc1)C2.Cl (stereo not drawn) : 68

Okay, now this compound:
**Q:** Give its Population Healthy Nuclei (%) value. Item: O=C(Cc1ccc(-c2ccc(OCCN3CCOCC3)cc2)cn1)NCc1ccccc1 [TIRBANIBULIN]
**A:** 72

###

# Test system: U2OS
# procedureSummary: Multiplex assay against U2OS
# Assay type: toxicity, cell-based
# conditions: human, 12 h, 1 µM, compound concentration 1 uM, replicate 2
Tag: Satisfied if measured Population Hoechst High Intensity Objects (%) is not below 10%, Not satisfied if it is.

Please review the following examples before continuing.
Cl.Oc1ccc2c3c1O[C@H]1c4[nH]c5c(c4C[C@@]4(O)[C@@H](C2)N(CC2CC2)CC[C@]314)C[C@@]1(O)[C@H]2Cc3ccc(O)c4c3[C@@]1(CCN2CC1CC1)[C@H]5O4 : Not satisfied
S=C(NCCCc1c[nH]cn1)NCCCN(Cc1ccc(Cl)c(Cl)c1)c1ccc(Br)cn1 : Satisfied
CCCS(=O)(=O)c1nc(NC2CC2)cc(-c2ccc3c(ccn3C3CC(C)(C)NC(C)(C)C3)c2)n1 : Not satisfied
CCN1CCN(Cc2ccc(Nc3ncc(F)c(-c4cc(F)c5nc(C)n(C(C)C)c5c4)n3)nc2)CC1.CS(=O)(=O)O : Not satisfied
O=C(Cc1ccc(-c2ccc(OCCN3CCOCC3)cc2)cn1)NCc1ccccc1 : Satisfied

**Q:** Kindly determine if Population Hoechst High Intensity Objects (%) recorded for Cl.O=c1c2cccn2c2ccccc2n1CCCN1CCC(c2ccc(Cl)cc2)CC1 is above or exactly 10%.
**A:** Not satisfied

**Q:** Kindly determine if Population Hoechst High Intensity Objects (%) recorded for CN[C@@H]1C[C@H]2O[C@@](C)([C@@H]1OC)n1c3ccccc3c3c4c(c5c6ccccc6n2c5c31)C(=O)NC4 is above or exactly 10%.
**A:** Not satisfied

**Q:** Kindly determine if Population Hoechst High Intensity Objects (%) recorded for Cc1ccc2nc(NCCN)c3ncc(C)n3c2c1.O=C(O)C(F)(F)F.O=C(O)C(F)(F)F is above or exactly 10%.
**A:** Satisfied
